Below are pIC50 values recorded for JNK1 kinase (Homo sapiens).
pIC50: −log10 of the molar value.

Compound	System	pIC50
COC(=O)c1cnc(NC(C)(C)C)nc1N[C@@H]1CC[C@@H](C)[C@H](O)C1 [Compound T005A]	JNK1 kinase (Homo sapiens)	< 6.00
CC(C)Nc1cc(N[C@@H]2CC[C@@H](C)[C@H](O)C2)c(C(N)=O)cn1	JNK1 kinase (Homo sapiens)	6.00 to 6.30

Provide pIC50 for all items below, preserving their order.
1. C[C@@H]1CC[C@@H](Nc2nc(NC(C)(C)C)ncc2C(F)F)C[C@H]1O
2. CC(C)(C)Nc1ncc(C(N)=O)c(NC2CCCN(C(N)=O)C2)n1 (stereo not drawn)
3. CC(C)C(=O)c1cnc(NC(C)(C)C)nc1N[C@@H]1CC[C@@H](C)[C@H](O)C1
4. CC(C)(C)Nc1ncc(C(N)=O)c(NC2CCC(=O)NC2)n1 (stereo not drawn)

stdout:
< 6.00
6.30 to 7.00
6.00 to 6.30
> 7.00
